protocol-summary: in vivo
Format: in vivo, mice (ddy strain)
condition-description: mouse, in vivo, ip; read-out: (WBC4000/ED50)* = (WBC4000/ED50)/[(WBC4000/ED50) of MMC1]
property-name: selectivity ratio

CO[C@@]12[C@H](COC(N)=O)C3=C(C(=O)C(C)=C(NCCSSCCCCNC(=O)CC[C@H](N)C(=O)O)C3=O)N1C[C@@H]1N[C@@H]12 [Compound 5] ... 3.21
CO[C@@]12[C@H](COC(N)=O)C3=C(C(=O)C(C)=C(NCCSSCc4cn([C@H]5C[C@H](O)[C@@H](CO)O5)c(=O)[nH]c4=O)C3=O)N1C[C@@H]1N[C@@H]12 [Compound 39] ... 1.5
CCOC(=O)CNC(=O)CCSSCCNC1=C(C)C(=O)C2=C(C1=O)[C@@H](COC(N)=O)[C@@]1(OC)[C@H]3N[C@H]3CN21 [Compound 29] ... 2.9

###

Property: LD50 at 336 h; scope: individual compounds
protocol-summary: Acute toxicity
Type: in vivo, mice (ddy)
condition-description: mouse, in vivo, ip; ddy mice, single i.p., 14 days, Behren Korber's method
Experimental: Certain compounds were selected from Compounds I. The following Table 4 indicates anti-tumour activity against Sarcoma 180 solid tumour (ED50), acute toxicity (LD50) and effects on the peripheral leucocytes (WBC4000) of each compound. Each animal of the test group consisting of 5 ddy mice was once administered (i.p.) with a test compound. […] The LD50 was determined by Behren Korber's method.
property-name: LD50 at 336 h (mg/kg)

CCOC(=O)CNC(=O)CCSSCCNC1=C(C)C(=O)C2=C(C1=O)[C@@H](COC(N)=O)[C@@]1(OC)[C@H]3N[C@H]3CN21 [Compound 29] ... 33.8
CC1=C(NCCSSCCNC(=O)[C@@H]2CCC(=O)N2)C(=O)C2=C(C1=O)N1C[C@H]3[C@H](N3C)[C@]1(O)[C@H]2COC(N)=O (some centres unmarked) [Compound 12] ... 75
CO[C@@]12[C@H](COC(N)=O)C3=C(C(=O)C(C)=C(NCCSSCCNC(=O)[C@@H]4CCCN4)C3=O)N1C[C@@H]1N[C@@H]12 [Compound 13] ... 30
CC(=O)NCCSSCCNC1=C(C)C(=O)C2=C(C1=O)[C@H](COC(N)=O)[C@@]1(O)[C@@H]3[C@H](CN21)N3C (some centres unmarked) [Compound 17] ... 60
CO[C@@]12[C@H](COC(N)=O)C3=C(C(=O)C(C)=C(NCCSSCCNC(=O)c4cc(=O)[nH]c(=O)[nH]4)C3=O)N1C[C@@H]1N[C@@H]12 [Compound 14] ... 45
CC1=C(NCCSSCCNC(=O)CC[C@@H](N)C(=O)O)C(=O)C2=C(C1=O)N1C[C@H]3[C@H](N3C)[C@]1(O)[C@H]2COC(N)=O (some centres unmarked) [Compound 11] ... 75
CO[C@@]12[C@H](COC(N)=O)C3=C(C(=O)C(C)=C(NCCSSCCNC(=O)/C=C(C)/C=C/C=C(C)/C=C/C4=C(C)CCCC4(C)C)C3=O)N1C[C@@H]1N[C@@H]12 [Compound 15] ... 16.9

###

Test system: peripheral leucocytes
protocol-summary: in vivo
Type: in vivo, mice (ddy strain)
condition-description: in comparison with mitomycin C
property-name: WBC4000/ED50 (in words)

CO[C@@]12[C@H](COC(N)=O)C3=C(C(=O)C(C)=C(NCCSSCC(=O)O[C@H]4CC[C@H]5[C@@H]6CCc7cc(OC(=O)c8ccccc8)ccc7[C@H]6CC[C@]45C)C3=O)N1C[C@@H]1N[C@@H]12 ... superior to mitomycin C
CO[C@@]12[C@H](COC(N)=O)C3=C(C(=O)C(C)=C(NCCSSCCC(=O)O[C@H]4CC[C@H]5[C@@H]6CCc7cc(OC(=O)c8ccccc8)ccc7[C@H]6CC[C@]45C)C3=O)N1C[C@@H]1N[C@@H]12 ... superior to mitomycin C
CC1=C(NCCSSCC(=O)O[C@H]2CC[C@H]3[C@@H]4CCc5cc(OC(=O)c6ccccc6)ccc5[C@H]4CC[C@]23C)C(=O)C2=C(C1=O)N1C[C@H]3[C@H](N3C)[C@]1(O)[C@H]2COC(N)=O (stereo partly shown) ... superior to mitomycin C
